Ref: patent US20110059953A1

Target: T-p53C-Y220C (Homo sapiens, UniProt P04637, M133L/N239Y/N268D/V203A/Y220C)
Construct: For all other experiments, the DNA coding for residues 94-312 of T-p53C was inserted into a modified pET24a(+) vector; 6xHis tag + B. stearothermophilus dihydrolipoyl acetyltransferase lipoyl domain (aa 1-85) + TEV site (N, cleaved yes); made in house; host or cells: Escherichia coli BL21 (DE3) or C41 (DE3)
Assay: 1H/15N-HSQC NMR chemical shift binding (KD NMR)
Conditions: KD (@ 20° C.), 1H/15N-HSQC
readout_name: Kd (µM)

test_smiles=CCn1c2ccccc2c2cc(CNC)ccc21 value=167

----------
Recorded ΔTm values for a group of molecules are listed next.
Target: T-p53C-Y220C (Homo sapiens, UniProt P04637, M133L/N239Y/N268D/V203A/Y220C)
Construct: For all other experiments, the DNA coding for residues 94-312 of T-p53C was inserted into a modified pET24a(+) vector; 6xHis tag + B. stearothermophilus dihydrolipoyl acetyltransferase lipoyl domain (aa 1-85) + TEV site (N, cleaved yes); made in house; host or cells: Escherichia coli BL21 (DE3) or C41 (DE3)
Assay: Thermal denaturation using capillary DSC
Format: binding
Conditions: increase in Tm on adding 250 μM of the test compound; 20 μM protein
readout_name: ΔTm (°C)

molecule="CCn1c2ccccc2c2cc(CNCCc3ccccc3)ccc21 [PK194]" unit_symbol=°C value=0.38
molecule="CCn1c2ccccc2c2cc(CN3CCN(C)C(CCO)C3)ccc21 (centres unmarked) [PK217]" unit_symbol=°C value=0.47
molecule="CCn1c2ccccc2c2cc(NC(=O)C(C)N3CCN(CC(N)=O)CC3)ccc21 (centres unmarked) [PK152]" unit_symbol=°C value=0.22
molecule="CCn1c2ccccc2c2cc(CN(C)C(=O)NC3CCS(=O)(=O)C3)ccc21 (centres unmarked) [PK148]" unit_symbol=°C value=0.23
molecule="CCN(CCN(C)C)Cc1ccc2c(c1)c1ccccc1n2CC [PK189]" unit_symbol=°C value=0.23

----------
Biological target: T-p53C-Y220C (Homo sapiens, UniProt P04637, M133L/N239Y/N268D/V203A/Y220C)
Construct: For all other experiments, the DNA coding for residues 94-312 of T-p53C was inserted into a modified pET24a(+) vector; 6xHis tag + B. stearothermophilus dihydrolipoyl acetyltransferase lipoyl domain (aa 1-85) + TEV site (N, cleaved yes); made in house; host or cells: Escherichia coli BL21 (DE3) or C41 (DE3)
Assay: Thermal denaturation using fluorescence (Sypro Orange)
Assay type: binding
Details: further compounds; 10 μM protein
readout_name: ΔTm (° C.) (°C)

molecule=CCn1c2ccccc2c2cc(CN3CCN(C)CC3)ccc21 readout_name="ΔTm (° C.)" unit_symbol=°C value=0.2
molecule="CCn1cc(C(=O)OC(C)C(=O)Nc2cc(C)on2)c2ccccc21 (stereo not drawn)" readout_name="ΔTm (° C.)" unit_symbol=°C value=0.11
molecule=CCn1c2ccccc2c2cc(CNCCSc3nnnn3C)ccc21 readout_name="ΔTm (° C.)" unit_symbol=°C value=0.41
molecule=[2H]C(=O)Nc1ccc(OC)c(S(N)(=O)=O)c1 readout_name="ΔTm (° C.)" unit_symbol=°C value=0.154
molecule="CCn1cc(C(=O)NCc2cccc(NC(=O)C3CC3)c2)c2ccccc21 [PK312]" readout_name="ΔTm (° C.)" unit_symbol=°C value=0.15
molecule=[2H]C(=O)OCC(=O)NC(=O)NCC=C readout_name="ΔTm (° C.)" unit_symbol=°C value=0.1
